The entries below are paired with their reported Spleen weight.
assay.summary: Tolerability in Sprague-Dawley rats, body and organ weights (Example 20)
Type: in vivo
measurement.parameters: male Sprague-Dawley rats, 50 mg/kg s.c. weekly for 6 weeks (7 doses), end of study
Strand notation (5' to 3'): a small letter for the sugar, then the base; units joined by * are phosphorothioate-linked, units joined directly phosphodiester-linked; [ ] holds rarer units or linkages, { } end groups; capitals alone tell only the bases. k = constrained ethyl (cEt); [5mC] = 5-methylcytosine; d = 2'-deoxy (DNA)
Give your result in g as a bare value.

Example entries begin here.
INSERT INTO assay_data (substance, readout_unit, recorded_number) VALUES
  ('1076481 (k[5mC]*kT*kA*dA*dG*dT*dA*dA*dG*dG*dT*dT*dT*k[5mC]*k[5mC]*k[5mC]) [compound 1076481]', 'g', 2.1),
  ('1076187 (kG*kA*kT*dT*dT*dA*dG*dG*dA*dT*dG*d[5mC]*dA*kT*kG*kG; antisense) [compound 1076187]', 'g', 1.7),
  ('958499 (ATTAGAGTATGTGGCA; 3-10-3 cEt gapmer, further chemistry not given here) [compound 958499]', 'g', 2.8),
  ('1097224 (k[5mC]*kT*k[5mC]*dT*dT*dA*dT*dA*dT*dG*dG*dT*dT*kT*kT*kG; antisense) [compound 1097224]', 'g', 1.4),
  ('1074755 (k[5mC]*kA*k[5mC]*dT*dT*dT*dT*dA*d[5mC]*dA*dT*dT*dA*kG*kG*kA; antisense) [compound 1074755]', 'g', 2.1);

Please find the next substance below.
Please give the documented Spleen weight of 1076453 (GTAATATTGCAATCTG; 3-10-3 cEt gapmer, further chemistry not given here) [compound 1076453] 2.1

* * *

System: Yap1 mRNA
assay.summary: Antisense inhibition of human Yap1 in A-431 cells by cEt gapmers, single dose (Example 2, RTS4814)
Format: cell-based
measurement.parameters: Table 20; Yap1 mRNA, percent of untreated control; 3-10-3 cEt gapmers targeting SEQ ID NO.: 1 and 2
Strand notation (5' to 3'): a small letter for the sugar, then the base; units joined by * are phosphorothioate-linked, units joined directly phosphodiester-linked; [ ] holds rarer units or linkages, { } end groups; capitals alone tell only the bases. k = constrained ethyl (cEt); [5mC] = 5-methylcytosine; d = 2'-deoxy (DNA)
Classification field: YES = YAP1 (% UTC) at or over 40 % UTC; NO = YAP1 (% UTC) under 40 % UTC.

Examples with answers:
INSERT INTO results (substance, cat) VALUES
  ('1076294 (kT*kA*kT*dA*dT*dT*dA*dG*dT*dG*d[5mC]*d[5mC]*d[5mC]*k[5mC]*k[5mC]*kT; antisense) [Compound 1076294]', 'NO'),
  ('1075270 (antisense k[5mC]*kT*kT*dT*dA*dT*dT*dA*dA*d[5mC]*d[5mC]*dT*dG*kG*kA*kG) [Compound 1075270]', 'NO'),
  ('1075526 (kT*kT*kT*dA*dA*dT*dT*dA*dA*dG*dG*dG*d[5mC]*k[5mC]*k[5mC]*kA; antisense) [Compound 1075526]', 'YES');

Would you kindly look at the next entry?
Does the substance 1074246 (antisense kA*kA*kG*dA*dA*dG*dT*dA*dT*d[5mC]*dT*d[5mC]*dT*kG*kA*k[5mC]) [Compound 1074246] have recorded YAP1 (% UTC) that is 40 % UTC or more? NO

* * *

Tested on: Yap1 mRNA
assay.summary: Dose-dependent inhibition of human Yap1 in A-431 cells (Example 7, 10,000 cells per well, RTS36584)
Format: cell-based
measurement.parameters: Table 59, A-431 cells 10,000 cells per well, free uptake
Strand notation (5' to 3'): a small letter for the sugar, then the base; units joined by * are phosphorothioate-linked, units joined directly phosphodiester-linked; [ ] holds rarer units or linkages, { } end groups; capitals alone tell only the bases. k = constrained ethyl (cEt); [5mC] = 5-methylcytosine; d = 2'-deoxy (DNA)
The entries below are paired with their reported pIC50.
Would you please state pIC50, meaning minus log10 of the concentration in mol/L, as a bare number?

Example entries begin here.
INSERT INTO results (substance, recorded_number) VALUES
  ('958553 (k[5mC]*k[5mC]*kA*dT*dT*dA*dT*dT*dA*d[5mC]*dT*d[5mC]*d[5mC]*kT*kG*kT; antisense) [compound 958553]', 7.52),
  ('958767 (kA*k[5mC]*kG*dA*dA*dT*dA*dA*dG*dG*d[5mC]*dA*dT*kT*kA*kG; antisense) [compound 958767]', 7.00),
  ('958758 (k[5mC]*kT*kA*dT*dT*d[5mC]*dA*dG*dT*dG*dA*dT*d[5mC]*kT*kG*k[5mC]; antisense) [compound 958758]', 7.00),
  ('958763 (k[5mC]*kA*k[5mC]*dA*dA*dT*dA*d[5mC]*dA*dA*dG*dA*dT*kG*k[5mC]*kA; antisense) [compound 958763]', 7.00),
  ('958573 (kG*kG*k[5mC]*dA*dA*dA*dT*dT*dA*dT*dA*dG*dG*k[5mC]*kA*k[5mC]; antisense) [compound 958573]', 7.00);

Please find the next substance below.
Please give the documented pIC50 of 958518 (k[5mC]*k[5mC]*kA*d[5mC]*dA*dG*dT*dA*dA*dT*dA*dG*d[5mC]*kT*k[5mC]*kT; antisense) [compound 958518] 7.00

* * *

assay.summary: Tolerability in Sprague-Dawley rats, body and organ weights (Example 20)
Type: in vivo
measurement.parameters: male Sprague-Dawley rats, 50 mg/kg s.c. weekly for 6 weeks (7 doses), end of study
Strand notation (5' to 3'): a small letter for the sugar, then the base; units joined by * are phosphorothioate-linked, units joined directly phosphodiester-linked; [ ] holds rarer units or linkages, { } end groups; capitals alone tell only the bases. k = constrained ethyl (cEt); [5mC] = 5-methylcytosine; d = 2'-deoxy (DNA)
The entries below are paired with their reported Kidney weight.
Give your result in g as a bare value.

Example entries begin here.
INSERT INTO assay_data (substance, property_label, recorded_number) VALUES
  ('1076187 (kG*kA*kT*dT*dT*dA*dG*dG*dA*dT*dG*d[5mC]*dA*kT*kG*kG; antisense) [compound 1076187]', 'Kidney weight', 3.0),
  ('1074755 (k[5mC]*kA*k[5mC]*dT*dT*dT*dT*dA*d[5mC]*dA*dT*dT*dA*kG*kG*kA; antisense) [compound 1074755]', 'Kidney weight', 3.3),
  ('1076453 (GTAATATTGCAATCTG; 3-10-3 cEt gapmer, further chemistry not given here) [compound 1076453]', 'Kidney weight', 3.2),
  ('1076481 (k[5mC]*kT*kA*dA*dG*dT*dA*dA*dG*dG*dT*dT*dT*k[5mC]*k[5mC]*k[5mC]) [compound 1076481]', 'Kidney weight', 2.6),
  ('958499 (ATTAGAGTATGTGGCA; 3-10-3 cEt gapmer, further chemistry not given here) [compound 958499]', 'Kidney weight', 3.1);

Please find the next substance below.
Please give the documented Kidney weight of 1097224 (k[5mC]*kT*k[5mC]*dT*dT*dA*dT*dA*dT*dG*dG*dT*dT*kT*kT*kG; antisense) [compound 1097224] 4.5

* * *

Tested on: Yap1 mRNA
assay.summary: Antisense inhibition of human Yap1 in A-431 cells by cEt gapmers, single dose (Example 4, RTS4814)
Assay type: cell-based
measurement.parameters: Yap1 mRNA remaining as percent of untreated control; 3-10-3 cEt gapmers; A-431 cells; Table 36
Strand notation (5' to 3'): a small letter for the sugar, then the base; units joined by * are phosphorothioate-linked, units joined directly phosphodiester-linked; [ ] holds rarer units or linkages, { } end groups; capitals alone tell only the bases. k = constrained ethyl (cEt); [5mC] = 5-methylcytosine; d = 2'-deoxy (DNA)
The entries below are paired with their reported YAP1 (% UTC).

Example entries begin here.
INSERT INTO results (substance, property_label, result) VALUES
  ('1075798 (kA*kT*kT*dT*dA*dG*dA*dT*dA*dG*dT*dT*dA*k[5mC]*kT*kG; antisense) [compound 1075798]', 'YAP1 (% UTC)', '21 % UTC'),
  ('1074998 (antisense k[5mC]*kA*k[5mC]*dG*d[5mC]*dG*dA*d[5mC]*d[5mC]*dT*dA*d[5mC]*dT*kA*kA*kG) [compound 1074998]', 'YAP1 (% UTC)', '61 % UTC'),
  ('1074294 (antisense kT*kT*kG*dG*dA*dG*dT*dT*dG*d[5mC]*dT*dG*d[5mC]*k[5mC]*kA*k[5mC]) [compound 1074294]', 'YAP1 (% UTC)', '80 % UTC'),
  ('1075222 (kG*kT*kA*dT*dT*dT*dG*dG*dA*d[5mC]*dA*dA*d[5mC]*kT*k[5mC]*kT; antisense) [compound 1075222]', 'YAP1 (% UTC)', '3 % UTC'),
  ('1075190 (kT*kA*kT*d[5mC]*dA*dA*dG*dG*dA*dT*dT*d[5mC]*dA*kG*kT*kA; antisense) [compound 1075190]', 'YAP1 (% UTC)', '45 % UTC');

Please give the documented YAP1 (% UTC) of 1074646 (antisense kA*kA*kA*dT*dT*dG*dA*dA*dG*dG*dG*d[5mC]*d[5mC]*kA*kA*kA) [compound 1074646] 39 % UTC

Please give the documented YAP1 (% UTC) of 1075638 (antisense kA*kT*kT*dA*dA*d[5mC]*d[5mC]*dA*dG*dA*dA*dG*d[5mC]*k[5mC]*kT*kG) [compound 1075638] 79 % UTC

Please give the documented YAP1 (% UTC) of 1074198 (antisense kT*kT*kG*d[5mC]*d[5mC]*d[5mC]*dG*dG*dG*dT*d[5mC]*d[5mC]*dG*kG*kA*k[5mC]) [compound 1074198] 112 % UTC

Please give the documented YAP1 (% UTC) of 1074326 (antisense kA*k[5mC]*kG*d[5mC]*dA*dG*dG*dG*d[5mC]*dT*dA*dA*d[5mC]*kT*k[5mC]*k[5mC]) [compound 1074326] 36 % UTC

Please give the documented YAP1 (% UTC) of 1075446 (antisense k[5mC]*kT*kA*dT*dA*dA*dA*dT*d[5mC]*d[5mC]*dT*d[5mC]*dA*kT*kG*kT) [compound 1075446] 87 % UTC

Please give the documented YAP1 (% UTC) of 1074518 (kA*kA*kA*dT*dG*d[5mC]*dA*dT*dA*d[5mC]*dA*dA*dA*kG*k[5mC]*kG; antisense) [compound 1074518] 13 % UTC

Please give the documented YAP1 (% UTC) of 1076342 (antisense k[5mC]*kA*kT*dT*dA*dA*d[5mC]*dT*dA*d[5mC]*dA*dA*d[5mC]*kT*kG*kT) [compound 1076342] 33 % UTC
